Cbl-b/c-Cbl Selectivity values, listed per item
# Test system: Recombinant human c-Cbl (aa 47-435)
# test_details: c-Cbl Biochemical Assay (TR-FRET)
# run_parameters: ratio from the Cbl-b and c-Cbl TR-FRET biochemical assays
The reply should be a number, written without any unit.

As a guide, the following entries are already answered.
C[C@H]1CCCN(Cc2cc(C(F)(F)F)c3oc(-c4cccc([C@@H](c5nncn5C)[C@H]5C[C@H](C(F)(F)F)C5)c4)nc3c2)C1 : 4
C[C@H]1CCCN(Cc2cc(C(F)(F)F)c3oc(-c4cccc([C@H](c5nncn5C)C5COC5)c4)nc3c2)C1 : 7
Cn1cnnc1-c1ccc(C#N)cc1-c1cc(NCC2(CC#N)CC2)nc(-c2nc3cc(CN[C@@H]4CCC[C@@H]4O)cc(C(F)(F)F)c3o2)c1 : 1
C[C@H]1CCCN(Cc2cc(C(F)(F)F)c3oc(-c4cccc([C@@H](c5nncn5C)[C@H]5C[C@@H](C(F)(F)F)C5)c4)nc3c2)C1 : 5
C[C@H]1CCCN(Cc2cc(C(F)(F)F)c3oc(-c4cccc(C(c5nncn5C)C5CCC5)c4)nc3c2)C1 (stereo partly drawn) : 9

INPUT: Please report the recorded Cbl-b/c-Cbl Selectivity for C[C@H]1CCCN(Cc2cc(C(F)(F)F)c3oc(-c4cccc([C@@H](c5nncn5C)C5COC5)c4)nc3c2)C1 .
OUTPUT: 1

INPUT: Please report the recorded Cbl-b/c-Cbl Selectivity for Cn1cnnc1-c1ccccc1-c1cc(NCCCC#N)nc(-c2nc3cc(CNCC(C)(C)O)cc(C(F)(F)F)c3o2)c1 .
OUTPUT: 11

INPUT: Please report the recorded Cbl-b/c-Cbl Selectivity for Cn1cnnc1-c1ccc(C#N)cc1-c1cc(NC[C@@H](O)CC#N)nc(-n2cc3c(C(F)(F)F)cc(CN4CCC5(CCC5)C4)cn3c2=O)c1 .
OUTPUT: 21

INPUT: Please report the recorded Cbl-b/c-Cbl Selectivity for Cn1cnnc1-c1ccc(C(F)(F)F)cc1-c1cc(NCCCC#N)nc(-c2nc3cc(CNCC4CC4)cc(C(F)(F)F)c3o2)c1 .
OUTPUT: 7

Hello, the source for this data is patent US20260209222A1, in case you need it.
